target: Acetylcholinesterase (Homo sapiens, UniProt P22303)
Sequence (P22303 whole entry): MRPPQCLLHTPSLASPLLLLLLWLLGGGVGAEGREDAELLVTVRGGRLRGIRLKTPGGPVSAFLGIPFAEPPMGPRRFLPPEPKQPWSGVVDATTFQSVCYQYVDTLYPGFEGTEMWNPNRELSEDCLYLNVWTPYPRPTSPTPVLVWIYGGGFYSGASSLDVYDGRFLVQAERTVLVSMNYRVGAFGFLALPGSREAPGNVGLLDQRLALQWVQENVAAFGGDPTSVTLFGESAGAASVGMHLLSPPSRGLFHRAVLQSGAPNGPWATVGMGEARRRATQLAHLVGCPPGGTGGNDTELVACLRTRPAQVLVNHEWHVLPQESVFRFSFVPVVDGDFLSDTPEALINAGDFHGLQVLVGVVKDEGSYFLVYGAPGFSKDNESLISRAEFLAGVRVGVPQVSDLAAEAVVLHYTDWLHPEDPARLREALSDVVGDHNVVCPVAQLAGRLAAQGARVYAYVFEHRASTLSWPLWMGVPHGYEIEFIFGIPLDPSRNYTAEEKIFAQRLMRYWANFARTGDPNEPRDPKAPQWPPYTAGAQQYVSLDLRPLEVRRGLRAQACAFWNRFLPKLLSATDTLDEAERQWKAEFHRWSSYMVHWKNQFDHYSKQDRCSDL
measure: IC50 (nM)

>>> quantitative_readout("Nc1c2c(nc3cc(Cl)ccc13)CC(CNC(=O)CCCCC1CCSS1)CC2 (stereo unspecified)")
1090

* * *

pIC50: −log10 of the molar value.
Here we list compounds with their recorded pIC50 when tested on Cholinesterase (Homo sapiens, UniProt P06276).
Sequence (P06276 whole entry): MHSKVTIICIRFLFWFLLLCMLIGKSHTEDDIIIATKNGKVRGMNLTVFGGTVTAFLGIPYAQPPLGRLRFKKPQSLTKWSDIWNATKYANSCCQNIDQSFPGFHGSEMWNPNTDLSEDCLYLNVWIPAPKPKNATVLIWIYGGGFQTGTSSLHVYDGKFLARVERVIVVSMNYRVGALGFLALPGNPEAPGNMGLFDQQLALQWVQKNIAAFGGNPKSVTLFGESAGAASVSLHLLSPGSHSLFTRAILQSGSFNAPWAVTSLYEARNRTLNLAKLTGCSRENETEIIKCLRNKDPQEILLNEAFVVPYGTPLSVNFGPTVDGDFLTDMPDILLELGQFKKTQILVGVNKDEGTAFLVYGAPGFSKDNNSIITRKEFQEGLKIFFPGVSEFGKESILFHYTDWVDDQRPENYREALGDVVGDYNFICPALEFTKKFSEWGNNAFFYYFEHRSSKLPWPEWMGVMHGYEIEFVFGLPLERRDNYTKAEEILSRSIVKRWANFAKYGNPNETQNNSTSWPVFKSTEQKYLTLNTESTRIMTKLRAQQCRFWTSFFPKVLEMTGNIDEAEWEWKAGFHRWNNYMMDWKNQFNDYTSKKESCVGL
measure: pIC50

>>> quantitative_readout("Nc1c2c(nc3cc(Cl)ccc13)CC(CNC(=O)CCCCC1CCSS1)CC2 (configuration not stated)")
6.48
>>> quantitative_readout("NCCCNc1c2c(nc3cc(Cl)ccc13)CCCC2")
5.59
